# assayed-target: T1, nonsulfated human anionic trypsin purified from E. coli (human, UniProt P07478 24-247)
# T1 construct: human anionic trypsin, the active enzyme cut from anionic trypsinogen (Hu2) by enteropeptidase; Not sulfated on Tyr154; also called Hu2 (E. coli); Hu2
# T1 sequence (P07478 24-247): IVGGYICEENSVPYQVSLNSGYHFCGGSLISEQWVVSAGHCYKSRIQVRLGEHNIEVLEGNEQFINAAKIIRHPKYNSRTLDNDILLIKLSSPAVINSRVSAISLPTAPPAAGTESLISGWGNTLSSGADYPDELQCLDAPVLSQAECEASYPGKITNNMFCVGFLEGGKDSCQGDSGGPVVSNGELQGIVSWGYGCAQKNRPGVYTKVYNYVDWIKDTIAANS
# test-method-notes: equilibrium binding assay (free trypsin activity on a fluorogenic substrate); fixed trypsin incubated with increasing SPINK1, 0.2 ml, 0.1 M Tris-HCl (pH 8.0), 150 mM NaCl, 1 mM CaCl2, 0.05% Tween 20, 15 h; free trypsin measured with Z-Gly-Pro-Arg-AMC; apparent KD, global fit of at least three experiments
# conditions-used: both partners purified
Listed binders paired with reported pKd
A value of pKd is the negative decimal logarithm of a concentration given in moles per litre.

>  <binder>
serine protease inhibitor Kazal type 1 (SPINK1), wildtype, C-terminal 10His tag (natural protein, human, UniProt P00995 24-79, looked up, expressed from the SPINK1-minigene-1 construct with its own signal peptide; Residue numbers start at the initiator methionine; source: HEK 293T, transfected, purified from conditioned medium (nickel-nitrilotriacetic acid cartridge); not shown: 10His, C-terminal, kept) DSLGREAKCYNELNGCTKIYDPVCGTDGNTYPNECVLCFENRKRQTSILIQKSGPC

>  <recorded-value>
12.52

$$$$

// moving on: another record for pKd
Exercise: Please look up its pKd: SPINK1 variant N34S, C-terminal 10His tag (natural protein, human, UniProt P00995 24-79, looked up, also called SPINK1 N34S; p.N34S; source: HEK 293T, transfected, purified from conditioned medium (nickel-nitrilotriacetic acid cartridge); not shown: 10His, C-terminal, kept) DSLGREAKCYSELNGCTKIYDPVCGTDGNTYPNECVLCFENRKRQTSILIQKSGPC
Key: 12.40
